B1: Max-interacting protein 1, residues 70 to 120; numbered along this chain, P50539 (parent)
chain: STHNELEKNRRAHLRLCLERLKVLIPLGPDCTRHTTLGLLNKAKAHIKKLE

# Variants of: B1
# experiment notes: abundance fitness (aPCA) (normalised: wild type 0, dead -1); higher = more abundant; growth selection in yeast, the domain comes from the species named
# settings: Homo sapiens
Listing of entries alongside the reported abundance fitness.
Reply: number alone, nothing else.

Answered cases to consult:
R10W :: 0.163
T32G :: 0.012
E7H :: -0.3
L39Q :: -0.894

Prompt line: Quote abundance fitness reported for R15D please.
Response line: -0.749
